# Tested system: FGFR2 (Homo sapiens, UniProt P21802)
# Construct: purchased Invitrogen
# Sequence (P21802 22-821): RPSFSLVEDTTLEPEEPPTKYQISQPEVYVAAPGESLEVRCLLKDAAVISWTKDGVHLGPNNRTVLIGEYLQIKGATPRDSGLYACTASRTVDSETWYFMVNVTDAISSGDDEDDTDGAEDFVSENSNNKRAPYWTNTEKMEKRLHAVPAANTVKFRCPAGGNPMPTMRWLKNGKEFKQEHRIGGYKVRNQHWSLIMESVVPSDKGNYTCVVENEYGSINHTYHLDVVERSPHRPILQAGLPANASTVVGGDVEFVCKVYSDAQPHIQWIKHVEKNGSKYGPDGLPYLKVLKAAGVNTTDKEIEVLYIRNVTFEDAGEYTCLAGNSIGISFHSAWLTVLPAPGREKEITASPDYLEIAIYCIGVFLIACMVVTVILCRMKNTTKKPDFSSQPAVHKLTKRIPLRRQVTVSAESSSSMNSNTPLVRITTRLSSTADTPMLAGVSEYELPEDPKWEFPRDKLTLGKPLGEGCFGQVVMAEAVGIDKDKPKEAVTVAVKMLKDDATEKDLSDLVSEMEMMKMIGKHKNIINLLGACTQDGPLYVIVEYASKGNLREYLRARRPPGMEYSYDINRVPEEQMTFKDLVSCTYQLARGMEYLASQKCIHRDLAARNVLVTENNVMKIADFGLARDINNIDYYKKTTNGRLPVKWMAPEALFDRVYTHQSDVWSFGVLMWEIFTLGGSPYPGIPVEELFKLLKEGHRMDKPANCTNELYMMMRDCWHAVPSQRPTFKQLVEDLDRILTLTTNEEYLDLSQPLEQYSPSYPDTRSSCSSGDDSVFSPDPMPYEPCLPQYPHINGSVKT
# Method notes: In vitro kinase assay (Z'-LYTE), FGFR2
# Type: biochemical
# Condition label: read-out: % of inhibition of the kinase compared to the control
Test readout: inhibition at 0.1 µM

Answered examples (5):
Molecule | Test readout | Recorded measurement
CC(=O)c1cc2cc(NCc3cc(NC(=S)Nc4cccc(C(F)(F)F)c4)ccc3C)cnc2[nH]1 | inhibition at 0.1 µM | < 50%
CC(=O)c1cc2cc(NCc3cc(NC(=O)c4ccc(Cl)c(C(F)(F)F)c4)ccc3C)cnc2[nH]1 | inhibition at 0.1 µM | < 50%
CC(=O)c1cc2cc(NCc3cc(NC(=O)c4ccc(CN5CCC(N(C)C)C5)c(F)c4)ccc3C)cnc2[nH]1 (stereo not shown) | inhibition at 0.1 µM | < 50%
Cc1ccc(NC(=O)c2ccc(CN3CCN(C)CC3)c(C(F)(F)F)c2)cc1CNc1cnc2[nH]c(C(=O)O)cc2c1 | inhibition at 0.1 µM | ≥ 50%
CC(=O)c1cc2cc(NCc3cc(NC(=O)c4ccc(CN5CCN(C)CC5)cc4)ccc3C)cnc2[nH]1 | inhibition at 0.1 µM | < 50%

Each of the following entries comes with a recorded value; kindly state inhibition at 0.1 µM for each.
1. CC(=O)c1cc2cc(NCc3cc(NC(=O)c4ccnc(C)c4)ccc3C)cnc2[nH]1
2. CC(=O)c1cc2cc(NCc3cc(NC(=O)c4ccc(CN5CCN(C)CC5)c(C(F)(F)F)c4)ccc3C)cnc2[nH]1
3. CC(=O)c1cc2cc(NCc3cc(NC(=O)c4ccc5[nH]nnc5c4)ccc3C)cnc2[nH]1
4. CC(=O)c1cc2cc(NC(=O)c3cccc(CNC(=S)c4cccc(C(F)(F)F)c4)c3)cnc2[nH]1
5. Cc1ccc(NC(=O)c2ccc(CN3CCC(N(C)C)C3)c(C(F)(F)F)c2)cc1CNc1cnc2[nH]c(C(=O)O)cc2c1 (stereo not shown)
6. Cc1ccc(NC(=O)c2ccc(CN3CCN(C)CC3)c(C(F)(F)F)c2)cc1C(=O)Nc1cnc2[nH]c(C(=O)O)cc2c1
7. CC(=O)c1cc2cc(NCc3cc(NC(=O)c4ccc(CN5CCN(C)CC5)c(C(F)(F)F)c4)ccc3F)cnc2[nH]1

1: < 50%; 2: ≥ 50%; 3: < 50%; 4: < 50%; 5: ≥ 50%; 6: ≥ 50%; 7: ≥ 50%

Each of the following entries comes with a recorded value; kindly state inhibition at 0.1 µM for each.
1. CC(=O)c1cc2cc(NCc3cccc(NC(=O)c4ccc(CN5CCN(C)CC5)c(C(F)(F)F)c4)c3)cnc2[nH]1
2. CC(=O)c1cc2cc(NCc3cc(NC(=O)c4cncc(C)c4)ccc3C)cnc2[nH]1
3. CC(=O)c1cc2cc(NC(=O)c3cc(NC(=O)c4ccc(CN5CCN(C)CC5)cc4)ccc3C)cnc2[nH]1
4. CC(=O)c1cc2cc(NC(=O)c3cccc(CNC(=O)c4ccc(CN5CCN(C)CC5)c(C(F)(F)F)c4)c3)cnc2[nH]1
5. CC(=O)c1cc2cc(NCc3cc(NC(=O)Nc4cccnc4)ccc3C)cnc2[nH]1
6. CC(=O)c1cc2cc(NCc3ccc(F)c(NC(=O)c4cncc(C(F)(F)F)c4)c3)cnc2[nH]1
7. CC(=O)c1cc2cc(NCc3cc(NC(=O)c4cc[nH]c4)ccc3C)cnc2[nH]1
8. Cc1ccc(NC(=O)c2ccc(CN3CC[C@H](N(C)C)C3)c(C(F)(F)F)c2)cc1CNc1cnc2[nH]c(C(=O)O)cc2c1

["≥ 50%", "< 50%", "< 50%", "< 50%", "< 50%", "≥ 50%", "< 50%", "≥ 50%"]

Each of the following entries comes with a recorded value; kindly state inhibition at 0.1 µM for each.
1. CNC(=O)c1cc2cc(NCc3cc(NC(=O)c4ccc(CN5CCC(N(C)C)C5)c(C(F)(F)F)c4)ccc3C)cnc2[nH]1 (stereo not shown)
2. CC(=O)c1cc2cc(NCc3cc(NC(=O)Cc4cccc(C(F)(F)F)c4)ccc3C)cnc2[nH]1
3. CC(=O)c1cc2cc(NCc3cccc(NC(=O)c4ccc(CN5CC[C@H](N(C)C)C5)c(C(F)(F)F)c4)c3)cnc2[nH]1
4. CC(=O)c1cc2cc(NCc3cc(NC(=O)c4ccc(CN5CCC(N(C)C)C5)c(C(F)(F)F)c4)ccc3C)cnc2[nH]1 (stereo not shown)

≥ 50%
< 50%
≥ 50%
≥ 50%

From: patent US9403823B2
